# viability per record follows
Assay: growth inhibitors of H69AR lung tumor, primary screen, human, duplicate replicates (AID 580);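 also: 100% = mean luminescence of untreated wells and 0% = no signal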
Details: H69AR lung tumor cells viability, ATP luminescence, 72 h; at 10 µM; stronger effect = lower value
measured property: viability (%)

                                    compound  observed_value
 0  CC(C(=O)Nc1ccccc1-c1ccccc1)N1CCN(C(=O)c2ccco2)CC1 (stereo unspecified)            74.1
 1  CCCCCC(=O)N1CC2(CC)CN(C(=O)CCCCC)CC(CC)(C1)C2=O            83.3
 2  COc1ccc(C(=O)OC(COc2ccccc2)Cn2ccnc2)cc1 (stereo unspecified)            94.7
 3           Nn1c(SCC(=O)NC2CCCCC2)nnc1C1CC1             103
 4  CCCNCC(O)COc1ccccc1C(=O)CCc1ccccc1 (stereo unspecified)            87.1
 5      Nc1ccc(C(=O)OCCCc2nc3ccccc3[nH]2)cc1            99.1
 6  CC(=O)Nc1sc2c(c1CN1CCN(c3ccccn3)CC1)CCCC2            95.4
 7  CC[N+](C)(CC)CCOC(=O)C(O)(c1ccccc1)C1CCCCC1 (stereo unspecified)             110
 8  COc1ccccc1N1CCN(c2nc3ccccc3nc2C(C#N)C(=O)OC(C)C)CC1 (stereo unspecified)            80.3
 9       N#C/C(=C(/O)CN1CCOCC1)c1nc2ccccc2s1             106
10    CN(CC(=O)Nc1nccs1)S(=O)(=O)c1ccc(F)cc1            95.2

* * *

Experiment: reversal of MRP1-mediated doxorubicin resistance, pilot screen, H69AR cells, doxorubicin co-treatment (AID 601)
Conditions: H69AR cells + 2 uM doxorubicin, CellTiter-Glo, 72 h; measured here: viability with 2 uM doxorubicin; at 10 µM; stronger effect = lower value
Listing of entries alongside the reported viability.
measured property: viability (%)

In [3]: df
Out[3]:
                              sample_smiles  measured_property  observed_value
0       CCOc1ccc(-c2noc(-c3ccncc3)n2)cc1OCC          viability            90.7
1    CN(CC(=O)Nc1nccs1)S(=O)(=O)c1ccc(F)cc1          viability             103
2  O=C(c1ccc2c(c1)[nH]c(=S)n1c3ccccc3nc21)N1CCN(c2ncccn2)CC1          viability            90.8
3         CCOc1ccc(-c2nnn(CCC(=O)O)n2)cc1OC          viability            89.8
4                     O=C(O)c1cc2c(s1)CCCC2          viability            91.1
5             Nc1nc2ccccc2n1C(=O)CCc1ccccc1          viability            76.1
6         c1cncc(-c2nnc3sc(-c4ccco4)nn23)c1          viability            98.3

* * *

Overview of recorded inhibition for various compounds
Assay: inhibitors of the yeast RAM network, pilot screen, dse1pr::URA3 reporter, 5-FOA selection (AID 869);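 also: 0% = DMSO wells with no growth and 100% = 10 µM 1-NA-PP1 with full growth; RAM network block rescues cells from 5-FOA so hits raise OD615 growth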
Conditions: S. cerevisiae dse1pr::URA3 5-FOA growth, OD615, 2 d; at 10 µM; stronger effect = higher value; strain carries analog-sensitive mutant Cbk1 kinase
measured property: inhibition (%)

                                    compound  measured_property  observed_value
 0  CCC(C)[C@@H](C(=O)Nc1ccc(OC)c(OC)c1)N1Cc2ccccc2C1=O (stereo not given in full)         inhibition            2.65
 1  CC(NC(=O)COc1ccccc1)C(c1ccccc1)N1CCN(C)CC1 (stereo not given)         inhibition            1.02
 2  O=C1c2ccccc2S(=O)(=O)N1CC(O)COc1ccc(Br)cc1 (stereo not given)         inhibition            1.39
 3  CC1(C)CC2(CC(C)(C)N1)OC(=O)N1CCc3ccccc3C12C (stereo not given)         inhibition             2.3
 4  COc1ccc(NC(=O)CSc2nnc(Cn3c(=O)sc4ccccc43)n2C)c(OC)c1         inhibition          -0.285
 5   CCn1c(=O)c2cc(C(=O)N3CCCC3)sc2c2ccccc21         inhibition            1.59
 6                   CC(=O)Nc1nc2c(F)cccc2s1         inhibition             1.6
 7  NC(=O)CSc1nnc(Cn2c(=O)sc3ccccc32)n1CCc1ccccc1         inhibition           0.275
 8          OCC1(c2cc(C(F)(F)F)n[nH]2)CCCCC1         inhibition             1.2
 9   Cc1cccc(OCCCC(=O)Nc2ccc(N3CCOCC3)cc2)c1         inhibition            2.59
10  CC(C)CC(/C(O)=C(\C#N)c1nc2ccccc2[nH]1)N1C(=O)c2ccccc2C1=O (stereo not given)         inhibition            3.05
11  CCOc1ccc2nc(N3CCC(C(=O)N4CCN(c5ncccn5)CC4)CC3)sc2c1         inhibition            1.76
12  O=C1N(O)C2(C=CCCC2)/C(=N\O)C12CCCCC2 (stereo not given)         inhibition           -0.15
13  CCOC(=O)COc1cccc2c(=O)n(CC(=O)N3CCN(C(=O)OCC)CC3)ccc12         inhibition            1.04
14  Cc1cccn2cc(-c3ccc(S(=O)(=O)N4CCOCC4)cc3)nc12         inhibition            1.75
15  CCN1CCN(C(=O)c2cc3c(=O)oc4ccc(C)cc4c3s2)CC1         inhibition           0.905
16  CC1(C(=O)NCc2cccnc2)CCC(=O)N1Cc1cccs1 (stereo not given)         inhibition               0
17  Cc1ccc(CC(CC(=O)O)C(=O)NC2CCCCC2)cc1 (stereo not given)         inhibition             2.5
18  Cc1ccc(CNC(=O)CCCNS(=O)(=O)c2cccc3nonc23)cc1         inhibition          -0.185
19  COc1ccc(-c2cc3ccccc3n2CC(O)CN2CCOCC2)cc1 (stereo not given)         inhibition            0.59
20  COc1cc(NS(=O)(=O)c2ccc(NC(=O)COc3ccc(C)cc3)cc2)nc(OC)n1         inhibition            1.73
21  CCCCC1CC(CSc2ncn[nH]2)OC1=O (stereo not given)         inhibition            1.21
22  CN(C)c1ccc(C(=O)Nc2ccc(S(=O)(=O)NC3=NCCCCC3)cc2)cc1         inhibition            1.61
23  Cn1c(=O)[nH]c(=O)c2c1nc(Sc1ncccn1)n2CCCc1ccccc1         inhibition            1.43
24  O=C(CSc1nnc(Cc2cc(=O)[nH]c(=O)[nH]2)n1-c1ccc(Cl)cc1)NC1CCCC1         inhibition            1.92
25  COc1ccccc1NC(=O)CSc1nnc(-c2ccccn2)n1Cc1ccco1         inhibition            1.23
26   CCOc1ccc(Cn2nnc(C(=O)NCc3ccccc3)c2N)cc1         inhibition           0.395
27  COC(=O)C1CCN(C(c2cccs2)c2sc3nc(C)nn3c2O)CC1 (stereo not given)         inhibition            1.68
28  Cc1cccc(N2CCN(C(=O)C3CCN(c4nnc(-n5cccc5)s4)CC3)CC2C)c1 (stereo not given)         inhibition           0.825
29  Cn1c(NC(=O)c2cc(Cl)ccc2Cl)cc(=O)n(C)c1=O         inhibition            1.17
30  Cc1cc(C(=O)NCC(c2ccco2)N(C)C)no1 (stereo not given)         inhibition             1.4
31  CC(=O)C1=C(C)NC(SCC(N)=O)=C(C#N)C1c1cccnc1 (stereo not given)         inhibition            1.12
32                    N#Cc1c2n(cnc1=O)CCCCC2         inhibition           0.835
33    CCOc1ccccc1NC(=O)CSc1nnc(-c2cnccn2)n1C         inhibition            3.12
34  Cc1ccc2oc(=O)c3cnn(CC(=O)N(CCCN4CCOCC4)Cc4ccco4)c3c2c1         inhibition            1.55
35  CCOC(=O)N1CCc2c(sc(NC(=O)c3ccc(Cl)s3)c2C(N)=O)C1         inhibition            0.53
36        CCCn1c(CNC(=O)Cc2ccccc2)nc2ccccc21         inhibition            2.26
37  COc1ccc(-c2cc3ccccc3n2CC(O)CN2CCN(CCO)CC2)cc1 (stereo not given)         inhibition            0.72
38                O=C(Oc1ccc(Cl)cc1)N1CCCCC1         inhibition            -0.1
39   COc1nc(NC(C)(C)C)nc(Oc2ccc(=O)n(C)n2)n1         inhibition           0.495
40  CC1CCCC(NC(=O)Cn2cc3c(n2)CCCCC3)C1C (stereo not given)         inhibition          -0.355
41  Cc1cc(S(=O)(=O)N2CCN(Cc3ccccc3)CC2)c(C)s1         inhibition            1.35
42  Cc1cccc(N(CC(=O)Nc2c(C)n(C)n(-c3ccccc3)c2=O)S(C)(=O)=O)c1         inhibition            1.61
43   CSc1nc2c(cnn2-c2ccc(C)c(C)c2)c(=O)[nH]1         inhibition            2.08
44  O=C(CSc1nc2c(c(=O)n1-c1ccc(Cl)cc1)SCC2)Nc1ccc2c(c1)OCCO2         inhibition            2.02
